- Tgt: hCA IX (Homo sapiens)
- Construct: made in house
- Protocol text: hCA IX inhibition, stopped-flow CO2 hydration assay
- Assay type: biochemical
- Measurement setup: Ki hCA I or II (nM)/Ki hCA IX (nM)
Quantity measured: SI hCA IX over hCA I or hCA II

Check out these entries, answers already filled in.
{"Smiles code": "COCc1cc(=O)oc2cc(NC(=O)[C@H](C)NC(=O)N[C@@H](C)C(=O)OC)ccc12", "SI hCA IX over hCA I or hCA II": ">370.4"}
{"Smiles code": "COCc1cc(=O)oc2cc(NC(=O)[C@@H](NC(=O)[C@H](C)NC(=O)OCc3ccccc3)C(C)(C)C)ccc12", "SI hCA IX over hCA I or hCA II": ">58.3"}

Please look at the following molecule next.
Please report the recorded SI hCA IX over hCA I or hCA II for `Cc1cc(=O)oc2cc(NC(=O)[C@H](C)NC(=O)OCC3c4ccccc4-c4ccccc43)ccc12` .
>109.9

---

- Tgt: hCA XII (Homo sapiens, UniProt O43570)
- Construct: made in house
- Sequence (O43570 25-354): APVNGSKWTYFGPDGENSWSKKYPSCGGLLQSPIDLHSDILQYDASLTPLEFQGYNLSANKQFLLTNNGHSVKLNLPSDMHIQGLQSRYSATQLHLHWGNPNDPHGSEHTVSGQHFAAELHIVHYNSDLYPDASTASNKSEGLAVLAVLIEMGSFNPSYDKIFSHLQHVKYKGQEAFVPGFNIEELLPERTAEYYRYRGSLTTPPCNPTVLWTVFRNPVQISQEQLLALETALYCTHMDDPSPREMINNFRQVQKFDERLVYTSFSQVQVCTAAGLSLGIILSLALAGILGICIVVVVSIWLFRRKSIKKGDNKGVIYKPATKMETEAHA
- Protocol text: hCA XII inhibition, stopped-flow CO2 hydration assay
- Assay type: biochemical
// assign fulfilled if Ki falls strictly below 40 nM, else not fulfilled (ties count as not fulfilled)

Some solved entries appear below for comparison.
{"Compound": "CCC(C)C(NC(=O)OCc1ccccc1)C(=O)Nc1ccc2c(COC)cc(=O)oc2c1 (centres unmarked) [Compound 8, Z-Ile-AMMC]", "Class name": "not fulfilled"}
{"Compound": "COCc1cc(=O)oc2cc(NC(=O)[C@@H](NC(=O)[C@H](C)NC(=O)OCc3ccccc3)C(C)(C)C)ccc12 [Compound 11, Z-Ala-tLeu-AMMC]", "Class name": "not fulfilled"}
{"Compound": "COCc1cc(=O)oc2cc(NC(=O)[C@H](C)NC(=O)N[C@@H](C)C(=O)OC)ccc12 [Compound 20, MeO-Ala-CO-Ala-AMMC]", "Class name": "not fulfilled"}
{"Compound": "COC(=O)CNC(=O)N[C@@H](C)C(=O)Nc1ccc2c(C)cc(=O)oc2c1 [Compound 16, MeO-Gly-CO-Ala-AMC]", "Class name": "fulfilled"}
{"Compound": "COC(=O)[C@H](C)NC(=O)N[C@@H](C)C(=O)Nc1ccc2c(C)cc(=O)oc2c1 [Compound 17, MeO-Ala-CO-Ala-AMC]", "Class name": "fulfilled"}
{"Compound": "Cc1cc(=O)oc2cc(NC(=O)[C@H](C)NC(=O)OCC3c4ccccc4-c4ccccc43)ccc12 [Compound 2, Fmoc-Ala-AMC]", "Class name": "fulfilled"}

# evaluate next
Please determine if CCOC(=O)CCNC(=O)N[C@@H](C)C(=O)Nc1ccc2c(C)cc(=O)oc2c1 [Compound 19, EtO-βAla-CO-Ala-AMC] is below 40 nM in terms of Ki.
fulfilled

---

hCA IX (Homo sapiens, UniProt Q16790): reported Ki for various compounds.
Write the number in nM without appending the unit.

{"Compound": "CCOC(=O)CCNC(=O)N[C@@H](C)C(=O)Nc1ccc2c(C)cc(=O)oc2c1", "Tgt": "hCA IX (Homo sapiens, UniProt Q16790)", "Unit descriptor": "nM", "Ki": 261}

Please report the recorded Ki for `COC(=O)[C@H](C)NC(=O)N[C@@H](C)C(=O)Nc1ccc2c(C)cc(=O)oc2c1` .
163

Please do the same for CCC(C)C(NC(=O)OCc1ccccc1)C(=O)Nc1ccc2c(COC)cc(=O)oc2c1 (centres unmarked) as well.
78.7

Please do the same for `COC(=O)[C@H](Cc1ccccc1)NC(=O)N[C@@H](C)C(=O)Nc1ccc2c(C)cc(=O)oc2c1` as well.
93.6

Please do the same for `Cc1cc(=O)oc2cc(NC(=O)[C@H](C)NC(=O)OCC3c4ccccc4-c4ccccc43)ccc12` as well.
91

---

Item-by-item account of melting point

Check out these entries, answers already filled in.
{"Smiles code": "CCOC(=O)CCNC(=O)N[C@@H](C)C(=O)Nc1ccc2c(C)cc(=O)oc2c1", "melting point": "182 to 183 °C"}
{"Smiles code": "COC(=O)[C@H](Cc1ccccc1)NC(=O)N[C@@H](C)C(=O)Nc1ccc2c(C)cc(=O)oc2c1", "melting point": "177 to 183 °C"}
{"Smiles code": "COCc1cc(=O)oc2cc(NC(=O)[C@H](C)NC(=O)N[C@@H](C)C(=O)OC)ccc12", "melting point": "148 to 150 °C"}
{"Smiles code": "COCc1cc(=O)oc2cc(NC(=O)[C@@H](NC(=O)[C@H](C)NC(=O)OCc3ccccc3)C(C)(C)C)ccc12", "melting point": "205 to 209 °C"}
{"Smiles code": "COC(=O)[C@H](C)NC(=O)N[C@@H](C)C(=O)Nc1ccc2c(C)cc(=O)oc2c1", "melting point": "193 to 195 °C"}
{"Smiles code": "COC(=O)CNC(=O)N[C@@H](C)C(=O)Nc1ccc2c(C)cc(=O)oc2c1", "melting point": "193 to 195 °C"}

Please look at the following compound next.
Please report the recorded melting point for `Cc1cc(=O)oc2cc(NC(=O)[C@H](C)NC(=O)OCC3c4ccccc4-c4ccccc43)ccc12` .
153 to 155 °C

---

- Tgt: hCA XII (Homo sapiens, UniProt O43570)
- Construct: made in house
- Protocol text: hCA XII inhibition, stopped-flow CO2 hydration assay
- Format: biochemical
- Measurement setup: stopped-flow technique, mean of three independent experiments; read-out: Ki hCA XII
Item-by-item account of Ki
Write the number in nM without appending the unit.

{"Molecule": "COCc1cc(=O)oc2cc(NC(=O)[C@H](C)NC(C)=O)ccc12 [Compound 7, Ac-Ala-AMMC]", "Tgt": "hCA XII (Homo sapiens, UniProt O43570)", "Unit descriptor": "nM", "Result value": 46.8}

Query for hCA XII (Homo sapiens, UniProt O43570): what Ki does the record show for CC(=O)N[C@@H](C)C(=O)Nc1ccc2c(C)cc(=O)oc2c1 [Compound 6, Ac-Ala-AMC] ?
30.5

---

- Tgt: hCA XII (Homo sapiens, UniProt O43570)
- Construct: made in house
- Protocol text: hCA XII inhibition, stopped-flow CO2 hydration assay
- Format: biochemical
- Measurement setup: Ki hCA IX (nM)/Ki hCA XII (nM)
Quantity measured: SI hCA XII over hCA IX
Could you keep your reply to the number by itself?

{"Compound": "COC(=O)CNC(=O)N[C@@H](C)C(=O)Nc1ccc2c(C)cc(=O)oc2c1", "Tgt": "hCA XII (Homo sapiens, UniProt O43570)", "Result value": 4.8}
{"Compound": "CCC(C)C(NC(=O)OCc1ccccc1)C(=O)Nc1ccc2c(COC)cc(=O)oc2c1 (centres unmarked)", "Tgt": "hCA XII (Homo sapiens, UniProt O43570)", "Result value": 1.9}
{"Compound": "COC(=O)[C@H](Cc1ccccc1)NC(=O)N[C@@H](C)C(=O)Nc1ccc2c(C)cc(=O)oc2c1", "Tgt": "hCA XII (Homo sapiens, UniProt O43570)", "Result value": 2.3}
{"Compound": "COCc1cc(=O)oc2cc(NC(=O)[C@H](C)NC(=O)N[C@@H](C)C(=O)OC)ccc12", "Tgt": "hCA XII (Homo sapiens, UniProt O43570)", "Result value": 0.5}
{"Compound": "COCc1cc(=O)oc2cc(NC(=O)[C@@H](NC(=O)[C@H](C)NC(=O)OCc3ccccc3)C(C)(C)C)ccc12", "Tgt": "hCA XII (Homo sapiens, UniProt O43570)", "Result value": 0.5}
{"Compound": "CCOC(=O)CCNC(=O)N[C@@H](C)C(=O)Nc1ccc2c(C)cc(=O)oc2c1", "Tgt": "hCA XII (Homo sapiens, UniProt O43570)", "Result value": 27.4}
{"Compound": "COCc1cc(=O)oc2cc(NC(=O)[C@H](C)NC(C)=O)ccc12", "Tgt": "hCA XII (Homo sapiens, UniProt O43570)", "Result value": 0.6}
{"Compound": "COC(=O)[C@H](C)NC(=O)N[C@@H](C)C(=O)Nc1ccc2c(C)cc(=O)oc2c1", "Tgt": "hCA XII (Homo sapiens, UniProt O43570)", "Result value": 17.0}

Please report the recorded SI hCA XII over hCA IX for `CC(=O)N[C@@H](C)C(=O)Nc1ccc2c(C)cc(=O)oc2c1` .
0.8

Please do the same for `Cc1cc(=O)oc2cc(NC(=O)[C@H](C)NC(=O)OCc3ccccc3)ccc12` as well.
0.3

Please do the same for `Cc1cc(=O)oc2cc(NC(=O)[C@H](C)NC(=O)OCC3c4ccccc4-c4ccccc43)ccc12` as well.
2.4
